MEASURED TARGET: Bifunctional epoxide hydrolase 2 (Homo sapiens, UniProt P34913)
PROTOCOL NOTES: Inhibition of recombinant human sEH using PHOME as substrate preincubated for 30 mins followed by substrate addition and measured after 30 mins by fluoresence-based assay
pIC50: −log10 of the molar value.
OBSERVABLE: pIC50

ENTRY SMILES	MEASURED TARGET	READOUT VALUE
CS(=O)(=O)Nc1ccc(CNC(=O)c2ccc(CC(F)(F)F)cc2)c(Cl)c1	Bifunctional epoxide hydrolase 2 (Homo sapiens, UniProt P34913)	7.89

I: CS(=O)(=O)Nc1ccc(CNC(=O)c2ccc(C(F)(F)C(F)(F)F)cc2)c(Cl)c1
II: CC(C)(C)c1ccc(C(=O)NCc2c(Cl)cc(NS(C)(=O)=O)cc2Cl)cc1
Asked: Given the listed items, does I or II have the lesser reported pIC50? Kindly state the label of the option you pick.
Given back: II

1: CC(F)(F)c1ccc(C(=O)NCc2ccc(NS(C)(=O)=O)cc2Cl)cc1
2: CS(=O)(=O)Nc1ccc(CNC(=O)c2ccc(S(F)(F)(F)(F)F)cc2)c(Cl)c1
3: CC(C)(C)c1ccc(C(=O)NCc2ccc(NS(C)(=O)=O)cc2F)cc1
4: CS(=O)(=O)Nc1ccc(CNC(=O)c2ccc(C3(C(F)(F)F)CC3)cc2)c(Cl)c1
Asked: Order the records by pIC50, with each subsequent value no larger than the one before. Labels, requested order.
Given back: 1, 4, 2, 3

###

MEASURED TARGET: Bifunctional epoxide hydrolase 2 (Homo sapiens, UniProt P34913)
Sequence (P34913 whole entry): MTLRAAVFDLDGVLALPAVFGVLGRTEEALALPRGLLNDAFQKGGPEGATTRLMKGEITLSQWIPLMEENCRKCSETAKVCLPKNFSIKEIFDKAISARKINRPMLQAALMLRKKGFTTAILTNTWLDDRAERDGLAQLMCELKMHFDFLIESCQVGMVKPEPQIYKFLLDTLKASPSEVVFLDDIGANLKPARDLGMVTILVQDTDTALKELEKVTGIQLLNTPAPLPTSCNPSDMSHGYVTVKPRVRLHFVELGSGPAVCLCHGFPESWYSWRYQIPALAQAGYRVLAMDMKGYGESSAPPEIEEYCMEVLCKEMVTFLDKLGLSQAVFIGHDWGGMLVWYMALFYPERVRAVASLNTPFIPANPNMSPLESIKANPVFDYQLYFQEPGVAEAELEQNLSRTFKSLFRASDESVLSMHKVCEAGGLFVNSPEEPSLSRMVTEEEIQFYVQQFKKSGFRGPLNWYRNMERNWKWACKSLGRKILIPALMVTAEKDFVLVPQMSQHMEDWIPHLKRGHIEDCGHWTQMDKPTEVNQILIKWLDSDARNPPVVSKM
PROTOCOL NOTES: Inhibition of recombinant human sEH using PHOME as substrate preincubated for 30 mins followed by substrate addition and measured after 30 mins by fluoresence-based assay
OBSERVABLE: IC50 (nM)

Look over these answered cases.
ENTRY SMILES	IC50, nM
CC(C)(C)c1ccc(C(=O)NCc2ccc(NS(=O)(=O)C3CC3)cc2Cl)cc1	7.8
CS(=O)(=O)Nc1ccc(CNC(=O)c2ccc(N3CCCCC3)cc2)c(Cl)c1	71
COc1ccc(C(=O)NCc2ccc(NS(C)(=O)=O)cc2Cl)cc1	38

A: CS(=O)(=O)Nc1ccc(CNC(=O)c2ccc(C3(O)COC3)cc2)c(Cl)c1
B: CS(=O)(=O)Nc1ccc(CNC(=O)c2ccc(C(F)(F)F)cc2)c(Cl)c1
Asked: Hi, I'm comparing A with B and wondering which one has the bigger number for IC50. Any idea? Mark your selection by writing its label.
Given back: A
